Where do the numbers come from? From patent US20260028424A1.

SUBJECT OF TEST: T1, biotinylated human CD203c (bio-huCD203c, Acro, Cat. nr. H52H4) (human, UniProt O14638 49-875, limits assumed, biotinylated (site not stated))
T1 construct: Captured on a Biotin CAPture chip for SPR
T1 sequence (looked up): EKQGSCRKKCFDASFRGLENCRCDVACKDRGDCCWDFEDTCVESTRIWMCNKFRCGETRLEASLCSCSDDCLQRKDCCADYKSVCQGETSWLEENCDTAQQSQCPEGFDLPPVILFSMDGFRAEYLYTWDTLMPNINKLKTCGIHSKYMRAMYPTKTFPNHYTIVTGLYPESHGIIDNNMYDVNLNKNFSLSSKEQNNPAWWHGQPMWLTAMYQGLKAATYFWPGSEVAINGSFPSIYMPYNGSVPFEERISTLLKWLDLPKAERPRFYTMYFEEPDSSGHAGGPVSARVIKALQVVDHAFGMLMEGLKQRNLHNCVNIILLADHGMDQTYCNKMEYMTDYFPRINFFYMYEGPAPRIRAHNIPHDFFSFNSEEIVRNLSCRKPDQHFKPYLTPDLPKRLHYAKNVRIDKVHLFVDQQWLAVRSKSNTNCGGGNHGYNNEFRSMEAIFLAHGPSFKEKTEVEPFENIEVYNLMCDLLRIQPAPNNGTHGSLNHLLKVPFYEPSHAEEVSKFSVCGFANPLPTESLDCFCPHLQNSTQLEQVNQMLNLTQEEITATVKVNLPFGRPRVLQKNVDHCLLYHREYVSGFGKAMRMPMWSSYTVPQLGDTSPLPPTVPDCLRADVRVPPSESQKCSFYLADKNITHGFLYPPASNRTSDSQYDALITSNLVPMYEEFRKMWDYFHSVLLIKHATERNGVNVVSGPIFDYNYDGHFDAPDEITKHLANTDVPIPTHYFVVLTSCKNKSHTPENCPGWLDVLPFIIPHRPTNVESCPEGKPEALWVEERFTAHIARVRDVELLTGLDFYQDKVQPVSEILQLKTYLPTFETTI
TEST PROTOCOL: SPR, single-cycle protocol, Bio-huCD203c; table gives Rmax, Chi2 and KD only
ASSAY ENDPOINT: pKd
Friendly reminder that pKd comes from taking -log10 of the concentration in mol/L.

The measured pKd associated with FJ2156_MH1_C x F6_12B huIgG1 KIH (bispecific antibody, V domains shown, also called MH1_C/F6.12_B) VH 1: QVQLVQSGAEVKEPGASVKVSCKASGYTFTDYYMNWVRQAPGQGLEWMGRIYPGSGNTYYAQNFQGRVTMTRDTSTSTVYMELSSLRSEDTAVYYCARGVYYYDYWGQGTLVTVSS VH 2: QVQLVQSGAEVKKPGESLKISCKGSGYRFASNWIGWVRQMPGKGLQWMGEIYPGDSNTRYSPSFQGQVTISADKSISTAYLQWSSLKASDTAMYYCARKDYYYGIMDVWGQGTTVTVSS VL: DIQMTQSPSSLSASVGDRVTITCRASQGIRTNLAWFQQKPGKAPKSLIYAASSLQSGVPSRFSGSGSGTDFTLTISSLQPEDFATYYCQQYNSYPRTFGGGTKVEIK reads 6.97
